B1: AUP1 (parent)
chain: FCASTRLPPTPLLLFPEEEATNGR

Variants of: B1
Assay: protein stability index of a GFP-peptide fusion (GPS, HEK-293T) (PSI 1-6); higher = more stable;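 also: lentivirally expressed fusions sorted by FACS into six bins by GFP to DsRed ratio, PSI derived from sequencing read proportions per bin multiplied by bin number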
Details: c terminus: a fixed tail appended
measured endpoint: protein stability index
Please give only the number in your answer, with no unit.

Field: example entries. Status: answers known.
>  <sequence text>
FCASTRLPPTALLLFPEEEATNGR

>  <measured endpoint>
protein stability index

>  <measured result>
2.39

$$$$
>  <sequence text>
FCASTRLPSTPLLLFPEEEATNGR

>  <measured endpoint>
protein stability index

>  <measured result>
2.82

$$$$
>  <sequence text>
GCASTRLPPTPLLLFPEEEATNGR

>  <measured endpoint>
protein stability index

>  <measured result>
4.27

$$$$
>  <sequence text>
FCASTRLPPTPLLWFPEEEATNGR

>  <measured endpoint>
protein stability index

>  <measured result>
1.38

$$$$
>  <sequence text>
FCASTRLPPSPLLLFPEEEATNGR

>  <measured endpoint>
protein stability index

>  <measured result>
2.8

$$$$
>  <sequence text>
FCGSTRLPPTPLLLFPEEEATNGR

>  <measured endpoint>
protein stability index

>  <measured result>
2.36

$$$$

protein stability index for FCASTRLRPTPLLLFPEEEATNGR is 2.67

The recorded protein stability index for FCFSTRLPPTPLLLFPEEEATNGR is 2.45

protein stability index reported for this variant FCASTRLPPTPLLLFPWEEATNGR : 1.7

Measured protein stability index, FCASTRLPPTPLLLFPAEEATNGR : 1.96

protein stability index measured on FCASTRLPPTPLILFPEEEATNGR = 2.77
